Target: AHR (Homo sapiens)
Sequence (P35869 11-848): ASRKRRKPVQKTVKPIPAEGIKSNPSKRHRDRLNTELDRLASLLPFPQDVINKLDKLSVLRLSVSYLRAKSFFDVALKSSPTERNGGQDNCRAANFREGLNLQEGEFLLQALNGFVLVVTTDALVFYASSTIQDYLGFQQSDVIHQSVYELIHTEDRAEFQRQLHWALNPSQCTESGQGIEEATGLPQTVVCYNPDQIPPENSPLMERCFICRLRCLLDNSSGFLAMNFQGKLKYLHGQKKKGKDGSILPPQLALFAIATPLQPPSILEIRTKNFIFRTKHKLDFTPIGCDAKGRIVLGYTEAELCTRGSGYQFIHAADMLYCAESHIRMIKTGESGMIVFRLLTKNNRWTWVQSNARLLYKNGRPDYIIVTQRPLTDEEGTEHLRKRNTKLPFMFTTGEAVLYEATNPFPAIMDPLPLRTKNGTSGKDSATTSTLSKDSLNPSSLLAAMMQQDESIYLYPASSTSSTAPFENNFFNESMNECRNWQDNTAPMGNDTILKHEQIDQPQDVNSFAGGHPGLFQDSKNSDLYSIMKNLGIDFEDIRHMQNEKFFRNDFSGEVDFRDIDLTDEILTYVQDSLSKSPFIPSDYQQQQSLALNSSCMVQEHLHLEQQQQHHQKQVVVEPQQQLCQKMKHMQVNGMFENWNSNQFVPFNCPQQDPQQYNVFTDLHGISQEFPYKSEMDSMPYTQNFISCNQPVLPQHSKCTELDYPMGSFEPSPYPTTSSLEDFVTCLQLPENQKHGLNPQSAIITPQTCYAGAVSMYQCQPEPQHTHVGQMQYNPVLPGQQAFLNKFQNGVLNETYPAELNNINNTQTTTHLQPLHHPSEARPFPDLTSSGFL
Assay: In vitro assay 1: AHR-luc transactivation assay, antagonism in human cell line (U87 glioblastoma cells, kynurenic acid prestimulated)
Assay type: cell-based
Parameters: U87 glioblastoma cells (ATCC) endogenously expressing AHR; host or cells: U87 glioblastoma cells, stably transfected with DRE-firefly luciferase and renilla reporter constructs only
Settings: firefly luciferase DRE reporter, 150 μM kynurenic acid, 20 hours, read-out: Assay 1: AHR-luc Hum Antagonism IC50
reported_metric: IC50 (nM)

Look over these answered cases.
> print(dat)
                                   compound    target.or.system  reading.unit  number
1  N=S1(=O)C[C@H](O)[C@H](NC(=O)c2cc(-c3ccc(Cl)cc3)nn(-c3cccc(F)c3)c2=O)C1 (stereo partly drawn) [Example 42]  AHR (Homo sapiens)            nM    34.9
2  O=C(N[C@@H]1C[S+]([O-])C[C@@H]1O)c1cc(-c2ccc(Cl)cc2)nn(-c2cccc(F)c2)c1=O (single isomer, unassigned; (-)) [Example 30]  AHR (Homo sapiens)            nM     210
3  O=C(N[C@@H]1CS(=O)(=O)C[C@@H]1O)c1cc(-c2ccc(C(F)(F)F)nc2)nn(-c2cccc(F)c2)c1=O (single isomer, unassigned) [Example 20]  AHR (Homo sapiens)            nM    54.3

1 = C[C@@H](C[S+](C)[O-])NC(=O)c1cc(-c2ccc(Cl)cc2)nn(-c2cccc(F)c2)c1=O (mixture of isomers) [Example 3]
2 = O=C(N[C@@H]1CS(=O)(=O)C[C@@H]1O)c1cc(-c2ccc(C(F)(F)F)nc2)nn(-c2cccc(F)c2)c1=O (relative stereo) [Example 19]
Choose between 1 and 2 : whose measured IC50 value is numerically larger? Mark your selection by writing its label.
2

I = CS(=O)(=O)CCNC(=O)c1cc(-c2ccc(Cl)cc2)nn(-c2cccc(F)c2)c1=O [Example 59]
II = N=S1(=O)C[C@H](O)[C@H](NC(=O)c2cc(-c3ccc(Cl)cc3)nn(-c3cccc(F)c3)c2=O)C1 (single isomer, unassigned) [Example 43]
III = C[C@@H](C[S+](C)[O-])NC(=O)c1cc(-c2ccc(Cl)cc2)nn(-c2cccc(F)c2)c1=O (single isomer, unassigned) [Example 5]
IV = N=S1(=O)C[C@H](O)[C@H](NC(=O)c2cc(-c3ccc(Cl)cc3)nn(-c3cccc(F)c3)c2=O)C1 (single isomer, unassigned) [Example 46]
List items by IC50 in falling order. # respond with the labels, arranged in the requested order
I, III, IV, II
(I: 326 nM, III: 180 nM, IV: 103 nM, II: 43.8 nM)

A = O=C(N[C@@H]1CS(=O)(=O)C[C@@H]1O)c1cc(-c2ccc(C(F)(F)F)cc2)nn(-c2cccnc2)c1=O (single isomer, unassigned) [Example 17]
B = N=S1(=O)C[C@H](O)[C@H](NC(=O)c2cc(-c3ccc(Cl)cc3)nn(-c3cccc(F)c3)c2=O)C1 (stereo partly drawn) [Example 44]
Larger number for IC50: A , or B ? Please respond with the label that marks your chosen entry.
B
(B: 99.3 nM, A: 16.2 nM)
